- testSettings: human gut metagenome, 24 h, 2 µM; note: call rule not given here
endpointLabel: Bacterial Biotransformation

>>> testresult("COc1cc2nc(N3CCN(C(=O)c4ccco4)CC3)nc(N)c2cc1OC")
"Compound metabolized"
>>> testresult("CC(=O)CC(c1ccccc1)c1c(O)c2ccccc2oc1=O (stereo not drawn)")
"Compound metabolized"
>>> testresult("CC(C)NCC(O)c1ccc(NS(C)(=O)=O)cc1 (stereo not drawn)")
"Compound NOT metabolized"
>>> testresult("CCc1nn(CCCN2CCN(c3cccc(Cl)c3)CC2)c(=O)n1CCOc1ccccc1")
"Compound metabolized"
>>> testresult("COc1ccc2[nH]c([S+]([O-])Cc3ncc(C)c(OC)c3C)nc2c1 (stereo not drawn)")
"Compound metabolized"
>>> testresult("CCC(=O)NCC[C@@H]1CCc2ccc3c(c21)CCO3")
"Compound metabolized"
>>> testresult("CCN(CC)C(C)CN1c2ccccc2Sc2ccccc21 (stereo not drawn)")
"Compound metabolized"
>>> testresult("CN1CCC(=C2c3ccccc3CCc3cccnc32)CC1.O=C(O)/C=C\\C(=O)O.O=C(O)/C=C\\C(=O)O [AZATADINE MALEATE]")
"Compound NOT metabolized"
